- Species: Mus musculus
- Test method notes: Minimum effective dose for anti-hyperglycaemic activity was determined in C57B1/6 ob/ob obese mouse
- Type: functional
Measurement name: MED (uM.kg/diet)
Give bare numbers, in uM.kg/diet.

CC1(COc2ccc(CC3SC(=O)NC3=O)cc2)CCCCC1 (stereo not drawn) [CIGLITAZONE]	3000

Consider the following items and state reported MED for each.
1. CN(CCOc1ccc(CC2SC(=O)NC2=O)cc1)c1nc2ccccc2o1 (stereo not drawn) [BRL-48482]
2. O=C(NCCOc1ccc(CC2SC(=O)NC2=O)cc1)Nc1ccccc1 (stereo not drawn)

Result string:
1: 3; 2: 100

----------
- Organism: Mus musculus
- Test method notes: Minimum effective dose for anti-hyperglycaemic activity was determined in C57B1/6 ob/ob obese mouse
- Type: functional
Consider the following compounds; for each one, report its MED.
Numbers only, in uM.kg/diet.

Consider the following items and state reported MED for each.
1. CC1(COc2ccc(CC3SC(=O)NC3=O)cc2)CCCC(O)C1 (stereo not given)
2. O=C1NC(=O)C(Cc2ccc3c(c2)CC[C@H](Cc2ccccc2)O3)S1 (stereo not given in full)
3. CCc1ccc(CCOc2ccc(CC3SC(=O)NC3=O)cc2)nc1 (stereo not given)

Result string:
1. 500
2. 200
3. 200

Query string: Name the recorded MED for Cc1c(C)c2c(c(C)c1O)CCC(C)(COc1ccc(CC3SC(=O)NC3=O)cc1)O2 (stereo not given) .
Result string: 600

Provenance of the data: ChEMBL document CHEMBL1150042
